Recorded values, source PubChem BioAssay (NCI).

Test system: 786-0 renal
procedure.text: NCI-60 one-dose screen, 48 h
test.parameters: 10 µM unless noted
About 83,000 compounds went through this panel and 20% of them were active in at least one assay; those are over-represented in the sample as a whole. Calls of active or inactive are those of the source. Rule for the calls: active = growth percent below 10; inactive = the rest.
Write down one outcome, taken from true (1) for active, false (0) for inactive

Answered cases to consult:
{"columns": ["molecule", "class.label"],
 "data": [
  ["CCCCCCCCc1ccc(C(=O)Nc2ccc(C)cc2C(=O)O)cc1C", "false (0)"],
  ["Cn1cc(-c2nnc(N)nc2-c2c[nH]c3ccccc23)c2cccnc21", "false (0)"],
  ["Cc1cc2c(cc1Cl)C(=O)/C(=C/c1ccc(F)cc1)O2", "false (0)"],
  ["CC(=O)Nc1ccc(C(=O)NC(=S)Nc2ccc(S(N)(=O)=O)cc2)cc1", "false (0)"],
  ["COc1c(F)ccc(C(=O)Nc2ccc3nc(NC(=O)C4CCCN(S(=O)(=O)C5CC5)C4)sc3c2)c1F (stereo not given)", "false (0)"],
  ["CC1=C(C(=O)OCc2ccccc2)C(c2ccc(-n3cncn3)cc2)n2c(nc3ccccc32)N1 (stereo not given)", "false (0)"]
]}

**Query** So what was the verdict on `Cn1cc(-c2nc(N)nnc2-c2c[nH]c3ccc(Br)cc23)c2cccnc21` in this test?
**Result** false (0)

**Query** Record request — test call for `COc1ccc(C(=O)/C=C/c2ccc(Cl)c(Cl)c2)cc1S(N)(=O)=O`
**Result** true (1)

**Query** Please state the recorded outcome for this molecule: `Cc1cc(C)n(-c2ccc3nnc(-c4ccccc4)n3n2)n1`
**Result** false (0)

**Query** Outcome logged for COCOc1ccc2c(=O)c(C)c(C(=O)N[C@@H](Cc3ccccc3)C(O)C(=O)NCCc3ccc(OC)cc3)oc2c1 (stereo not given in full) in this assay:
**Result** false (0)

* * *

Tested on: SK-MEL-5 melanoma
procedure.text: NCI-60 one-dose screen, 48 h (100 = growth as untreated, 0 = no growth, -100 = all killed)
test.parameters: 10 µM unless noted
This is part of a sample that, as a whole, favours compounds with a hit. Of some 83,000 tested, about 20% had one in any assay.
This listing pairs compounds with measured growth.
Give just the numeric value; % need not be written.

{"columns": ["compound", "growth, %"],
 "data": [
  ["O=C(COc1ccc(NC(=O)Nc2ccc(Cl)c(Cl)c2)cc1)N=Nc1c(O)[nH]c2ccc(Cl)cc12", -83.8]
]}

**Query** Query (compound): `Cc1c(C(=O)NNC(=O)c2ccc(Cl)cc2)nnn1-c1ccc(Cl)cc1` ; field requested: growth
**Result** 99.5

**Query** Requested read-out: growth. Entry: CC1(C)CC[C@]2(C(=O)O)CC[C@]3(C)C(=CCC4[C@@]5(C)C[C@@H](O)[C@@H]6OC(c7cccc(Br)c7)OC[C@@]6(C)C5CC[C@]43C)C2C1 (some centres undefined)
**Result** 41.3

**Query** Request the reported growth associated with `COc1ccc(-c2ccnc(SCc3cc4cc(OC)ccc4[nH]c3=O)n2)cc1`
**Result** -3.59

* * *

Quick reference: growth of the listed items.
Tested on: A549/ATCC NSCLC
procedure.text: NCI-60 one-dose screen, 48 h (100 = growth as untreated, 0 = no growth, -100 = all killed)
test.parameters: 10 µM unless noted
This is part of a sample that, as a whole, favours compounds with a hit. Of some 83,000 tested, about 20% had one in any assay.
Output spec: scalar in %, unitless text.

Below, 8 compounds whose answers are already recorded.
{"columns": ["compound", "growth (%)"],
 "data": [
  ["CC(=O)Nc1cccc(Nc2nccc(N[C@@H](C)c3ccccc3)n2)c1", 16.4],
  ["Cc1c(C(=O)NNC(=O)c2ccc(Cl)cc2)nnn1-c1ccc(Cl)cc1", 95.2],
  ["COc1ccc(C(=O)/C=C/c2c(F)cccc2Cl)cc1S(N)(=O)=O", 8.28],
  ["O=C1/C(=C/C2=Cc3ccccc3OC2)SC(=S)N1c1ccccc1F", 96.7],
  ["CCCS(=O)(=O)N1CCCC(C(=O)Nc2nc3ccc(NC(=O)c4ccc(F)c(OC)c4F)cc3s2)C1 (centres undefined)", 57],
  ["O=C(c1ccc(Cl)cc1)c1ccc(OCCCN2CCN(c3ccncc3)CC2)cc1", 55.5],
  ["CC1(C)CC[C@]2(C(=O)Nc3ccccc3)CC[C@]3(C)C(=CCC4[C@@]5(C)C[C@@H](O)[C@H](O)[C@@](C)(CO)C5CC[C@]43C)C2C1 (some centres undefined)", 39.2],
  ["N#Cc1c(-c2cccc(Cl)c2Cl)cc(-c2ccc3ccccc3c2)[nH]c1=O", 25.1]
]}

**Query** Given `COc1cc(-c2cc(-c3cccc(OCC(=O)O)c3)[nH]c(=O)c2C#N)cc(OC)c1OC` , state its recorded growth.
**Result** 100

* * *

Tested on: PC-3 prostate
procedure.text: NCI-60 one-dose screen, 48 h
test.parameters: 10 µM unless noted
Compounds without any hit were thinned out: in the full panel of roughly 83,000, 20% have a hit. Activity calls are given as the source filed them. The calls were made as follows: active = growth percent below 10; inactive = the rest.
Form entry, call: pick from active, inactive

Please review the entries below; each comes with its answer.
{"columns": ["compound", "class.label"],
 "data": [
  ["COc1ccc(C(=O)/C=C/c2ccccc2Cl)cc1S(N)(=O)=O", "inactive"],
  ["COc1cccc(COc2ccc(NC(=O)Nc3ccc(Cl)c(C(F)(F)F)c3)cc2)c1", "inactive"],
  ["C=C1CCC2C3(C)COC(c4cccc(F)c4)OC3CCC2(C)C1C/C=C1/C(=O)OCC1O (stereo not given)", "active"]
]}

**Query** Write down the call the test reported for this compound. Item: `O=c1[nH]c2ccc(Cl)cc2cc1CSc1nccc(-c2ccc(Cl)cc2)n1`
**Result** inactive

**Query** Hey, what did the test say about CC1(C)CC[C@]2(C(=O)O)CC[C@]3(C)C(=CCC4[C@@]5(C)C[C@@H](O)[C@@H]6OC(c7ccccc7F)OC[C@@]6(C)C5CC[C@]43C)C2C1 (stereo not given in full) ?
**Result** inactive

* * *

Here the recorded growth is given for each entry.
Tested on: MCF7 breast
procedure.text: NCI-60 one-dose screen, 48 h (100 = growth as untreated, 0 = no growth, -100 = all killed)
test.parameters: 10 µM unless noted
The panel holds about 83,000 compounds, 20% with a hit somewhere; the sample as a whole holds those more often.
Report only the number, with the unit % understood.

Example entries and their recorded answers appear below.
{"columns": ["compound", "observation.type", "value.unit", "reported"],
 "data": [
  ["O=C(O)c1cccc(-c2ccc(/C=N/NC(=O)c3[nH]c4ccc(Br)cc4c3-c3ccccc3)o2)c1", "growth", "%", 53.1],
  ["O=C(NN1C(=O)/C(=C/C=C/c2ccc([N+](=O)[O-])o2)SC1=S)c1cccc(O)c1", "growth", "%", -61.9],
  ["CCOC(=O)C1=C(N)N(c2ccccc2)C2=C(C(=O)CC(C)(C)C2)C1c1cccc(Cl)c1Cl (centres undefined)", "growth", "%", 60]
]}

// next item, growth requested
**Query** Looking for the measured growth of `C/C(=N\Nc1ccc(S(N)(=O)=O)cc1)c1ccc(N=Nc2c(Nc3ccccc3)[nH][nH]c2=O)cc1` , can you help?
**Result** -31.2

* * *

Each entry below carries its reported growth.
Test system: NCI-H226 lung
procedure.text: NCI-60 one-dose screen, 48 h (100 = growth as untreated, 0 = no growth, -100 = all killed)
test.parameters: 10 µM unless noted
The panel holds about 83,000 compounds, 20% with a hit somewhere; the sample as a whole holds those more often.
Write the value in % as a bare number.

**Query** Which growth value is on record for O=C1CC(Sc2n[nH]c(-c3ccncc3)n2)C(=O)N1c1ccc(Br)cc1 (stereo not given) ?
**Result** 117

**Query** Which measured growth value corresponds to `O=C(COc1ccc(NC(=O)Nc2ccc(Cl)c(Cl)c2)cc1)N=Nc1c(O)[nH]c2ccc([N+](=O)[O-])cc12` ?
**Result** 90.1

**Query** # input compound: CCS(=O)(=O)N1CCCC(C(=O)Nc2nc3ccc(NC(=O)c4ccc(F)c(OC)c4F)cc3s2)C1 (stereo not given) ; wanted: its growth
**Result** 48

**Query** Data request, read-out growth, for `COc1cc(CNC(=O)/C=C/c2ccc3c(c2)OCO3)ccc1OCc1cn(-c2ccc([N+](=O)[O-])cc2)nn1`
**Result** 60.6

**Query** So what's the measured growth for this one? `O=C1Nc2ccc([N+](=O)[O-])cc2C1=Nc1ccccc1`
**Result** 102

**Query** Look at this compound and give its reported growth. `CCOC(=O)c1ccc(Nc2nc(NN)nc(-c3ccc(F)cc3)c2C#N)cc1`
**Result** 116

**Query** I have this compound here, `Nc1nc(C(F)(F)F)cs1` , and I need its recorded growth.
**Result** 98.9

**Query** I'd like to know its growth. The compound in question is COc1ccc(NC(=O)[C@H](C)N)cc1C(=O)Nc1cccc(C2CC(=O)c3c(cc(OC)c(OC)c3OC)O2)c1 (stereo not given in full)
**Result** 85.5

**Query** Which growth is listed for `C#CCOc1ccc(/C=N/Nc2nc(-c3ccc(F)cc3)cs2)cc1OC` ?
**Result** 54.1

**Query** Name the recorded growth for `O=C(COc1ccc2c(c1)CCCC(=O)N2)NCc1ccccc1` .
**Result** 93.9

**Query** Please report the recorded growth for `O=C(N=Nc1c(O)[nH]c2ccc([N+](=O)[O-])cc12)c1ccc2nc(-c3ccccc3)[nH]c2c1` .
**Result** 60.1

**Query** Reported growth, compound `Cc1cc(C)cc(NC(=O)Cn2cc(COn3nnc4ccccc43)nn2)c1` : ____
**Result** 101

**Query** Entry `C/C(=N\N=C1/C(=O)Nc2ccccc21)c1ccc2c(c1)Nc1ccccc1S2` : reported growth = ?
**Result** 56.3

**Query** What growth value was documented for this compound, CN(C)CCOc1ccc(C(=O)C2[C@H](c3ccc(Cl)cc3)[C@@H](c3ccccc3)NC23C(=O)Nc2ccc(Br)cc23)cc1 (stereo not given in full) ?
**Result** 43.7

**Query** # lookup: growth of C#CCOc1cc(N(CC)CC)ccc1C(C(=O)NC(C)(C)C)N(C(=O)C1CCc2cc(F)ccc2O1)c1ccc(F)cc1 (stereo not given)
**Result** 43.5

**Query** For the compound shown here, COc1cc(C2CC(c3ccc(S(=O)(=O)NCCNc4nc(Nc5ccc(F)cc5)nc(N(C)C)n4)cc3)=Nc3c(N)nc(N)nc3N2)cc(OC)c1OC (stereo not given) , give the reported growth.
**Result** 91.4

**Query** Recorded growth for `N#Cc1c(-c2cccc(Cl)c2Cl)cc(-c2ccc3ccccc3c2)[nH]c1=O` , please?
**Result** 19.6

**Query** Could you share which growth value was measured for `Cn1cc(-c2nnc(N)nc2-c2c[nH]c3ccc(Br)cc23)c2cc(Br)cnc21` ?
**Result** 74

**Query** Requested read-out: growth. Entry: COc1cc2c(c(OC)c1OC)C(=O)CC(c1cccc(NC(=O)c3cccc([N+](=O)[O-])c3)c1)O2 (stereo not given)
**Result** 38.4
